assay text: Compound 67A pharmacokinetics in human subjects
Format: in vivo
test context: in vivo; human subjects, 90 mg QD; AUC0-8; mean ± SD
outcome measure: AUC(0-t) (ng·h/mL)
Give just the numeric value; ng·h/mL need not be written.

Look up AUC(0-t): CC(C)OC(=O)Nc1ccc(-c2cnc([C@H]3CC[C@H](NC(=O)OC(C)C)CC3)s2)c(S(=O)(=O)NC(C)(C)C)c1 [Compound 67A]
11500

* * *

assay text: Food effect pharmacokinetics, 90 mg QD, cycle 1 day 1
Type: in vivo, human
test context: human, in vivo, oral, 90 mg, Fasted Patients (n = 3), 90 mg QD, cycle 1 day 1; Mean ± SD; read-out: AUC0-24
outcome measure: AUC(0-t) (ng·h/mL)
Just the number please, in ng·h/mL, no unit attached.

Need AUC(0-t) of CC(C)OC(=O)Nc1ccc(-c2cnc([C@H]3CC[C@H](NC(=O)OC(C)C)CC3)s2)c(S(=O)(=O)NC(C)(C)C)c1 [Compound 67A] , thanks.
5950

* * *

assay text: Compound 67A pharmacokinetics in human subjects
Assay type: in vivo
test context: in vivo; human subjects, 90 mg QD; mean ± SD
outcome measure: Cmax (ng/mL)
State just the number; it will be interpreted in ng/mL.

Entry under review: CC(C)OC(=O)Nc1ccc(-c2cnc([C@H]3CC[C@H](NC(=O)OC(C)C)CC3)s2)c(S(=O)(=O)NC(C)(C)C)c1 [Compound 67A] . Reported Cmax?
1740

* * *

assay text: Compound 67A pharmacokinetics in human subjects
Format: in vivo
test context: in vivo; human subjects, 15 mg BID
outcome measure: Cmax (µg/mL)
Provide the reading as a plain figure in µg/mL.

I am curious: what Cmax value has been reported for CC(C)OC(=O)Nc1ccc(-c2cnc([C@H]3CC[C@H](NC(=O)OC(C)C)CC3)s2)c(S(=O)(=O)NC(C)(C)C)c1 [Compound 67A] ?
0.338

* * *

assay text: Compound 67A pharmacokinetics in human subjects
Type: in vivo
test context: in vivo; human subjects, 130 mg QD; mean ± SD
outcome measure: Cmax

Any idea what Cmax was measured for CC(C)OC(=O)Nc1ccc(-c2cnc([C@H]3CC[C@H](NC(=O)OC(C)C)CC3)s2)c(S(=O)(=O)NC(C)(C)C)c1 [Compound 67A] ?
1800 ng/mL

* * *

assay text: Compound 67A pharmacokinetics in human subjects
Type: in vivo
test context: in vivo; human subjects, 20 mg BID
outcome measure: Tmax (h)
Answer with a number only, understood to be in h.

Give its Tmax value. Item: CC(C)OC(=O)Nc1ccc(-c2cnc([C@H]3CC[C@H](NC(=O)OC(C)C)CC3)s2)c(S(=O)(=O)NC(C)(C)C)c1 [Compound 67A]
2

* * *

assay text: Compound 67A pharmacokinetics in human subjects
Format: in vivo
test context: in vivo; human subjects, 130 mg QD; median (min, max)
outcome measure: Tmax (h)
Kindly answer with a numeric value in h, unit omitted.

So what does the record say about Tmax for CC(C)OC(=O)Nc1ccc(-c2cnc([C@H]3CC[C@H](NC(=O)OC(C)C)CC3)s2)c(S(=O)(=O)NC(C)(C)C)c1 [Compound 67A] ?
2

* * *

assay text: Food effect pharmacokinetics, 90 mg QD, cycle 1 day 1
Format: in vivo, human
test context: human, in vivo, oral, 90 mg, Fed Patients (n = 3), 90 mg QD, cycle 1 day 1; Mean ± SD
outcome measure: Cmax (ng/mL)
Hi! Could you send only the number? It should be in ng/mL, unit omitted.

Look at this compound and give its reported Cmax. CC(C)OC(=O)Nc1ccc(-c2cnc([C@H]3CC[C@H](NC(=O)OC(C)C)CC3)s2)c(S(=O)(=O)NC(C)(C)C)c1 [Compound 67A]
458

Origin of the recorded values: patent US20210275503A1
